# assay.target: full-length beta-Catenin (Uniprot ID P35222) (Homo sapiens)
# Construct: 10 nM full-length beta-Catenin (Uniprot ID P35222)
# assay.comment: Fluorescence polarization IC50 (beta-catenin / 5FAM-TCF4 10-53 competition)
# Assay type: binding
# condition.notes: fluorescence polarization; read-out: beta-Catenin FP IC50
experimental.readout: IC50 (nM)
Please give a number only; it is taken to be in nM.

Query: Look up IC50: CC(=O)N1CCC[C@]12CC=CCCCC1(CCCC=CCCCOC(=O)N3CC[C@@](C(=O)N[C@@H](Cc4ccsc4)C(=O)N[C@@H](Cc4csc5ccccc45)C(=O)N[C@@H](CCO)C(N)=O)(C3)NC(=O)[C@H](CC(C)C)NC(=O)[C@H](Cc3ccccc3)NC(=O)[C@H](C)NC(=O)[C@H](C)NC(=O)[C@H](CC(=O)O)NC(=O)[C@H](CC(=O)O)NC1=O)NC(=O)[C@H](Cc1ccccc1)NC(=O)[C@H](CC(=O)O)NC2=O (some centres unmarked) [I-1510]
Result: 10

Query: Again, but for CC(=O)N1CCC[C@]12CC=CCCCC1(CCCC=CCCCOC(=O)N3CC[C@@](C(=O)N[C@@H](Cc4ccccc4C(F)(F)F)C(=O)N[C@@H](Cc4ccc(Cl)cc4)C(=O)N[C@@H](CO)C(N)=O)(C3)NC(=O)[C@H](CC(C)C)NC(=O)[C@H](Cc3ccccc3)NC(=O)[C@H](C)NC(=O)[C@H](C)NC(=O)[C@H](Cc3cccc(C(=O)O)c3)NC(=O)[C@H](CC(=O)O)NC1=O)NC(=O)[C@H](CC(C)(C)C)NC(=O)[C@H](CC(=O)O)NC2=O (some centres unmarked) [I-2222]
Result: 84

Query: Again, but for CC(=O)N1CCC[C@]12CC=CCCCC1(CCCC=CCCCOC(=O)N3CC[C@@](C(=O)N[C@@H](Cc4ccsc4)C(=O)N[C@@H](Cc4csc5ccccc45)C(=O)N[C@@H](CCC(N)=O)C(N)=O)(C3)NC(=O)[C@H](CC(C)C)NC(=O)[C@H](Cc3ccccc3)NC(=O)[C@H](C)NC(=O)[C@H](C)NC(=O)[C@H](CN(CC(=O)O)CC(F)(F)F)NC(=O)[C@H](CC(=O)O)NC1=O)NC(=O)[C@H](CCC(C)(C)C)NC(=O)[C@H](CC(=O)O)NC2=O (some centres unmarked) [I-1772]
Result: 14

Query: Again, but for CC(=O)N1CCC[C@]12CC=CCCCC1(CCCC=CCCCOC(=O)N3CC[C@@](C(=O)N[C@@H](Cc4ccsc4)C(=O)N[C@@H](Cc4csc5ccccc45)C(=O)N[C@@H](C)C(N)=O)(C3)NC(=O)[C@H](CC(C)C)NC(=O)[C@H](Cc3ccccc3)NC(=O)[C@H](C)NC(=O)[C@H](C)NC(=O)[C@H](Cc3cccc(C(=O)O)c3)NC(=O)[C@H](CC(=O)O)NC1=O)NC(=O)[C@H](CC(C)(C)C)NC(=O)[C@H]([C@@H](O)C(=O)O)NC2=O (some centres unmarked) [I-2258]
Result: 272

Query: Again, but for CCCCCCCC(=O)N1CCC[C@]12CC=CCCCC1(CCCC=CCCCOC(=O)N3CC[C@@](C(=O)N[C@@H](Cc4ccccc4Cl)C(=O)N[C@@H](Cc4csc5ccccc45)C(=O)N[C@@H](C(N)=O)[C@H](C)O)(C3)NC(=O)[C@H](CC(N)=O)NC(=O)[C@H](Cc3ccccc3)NC(=O)[C@H](C)NC(=O)[C@H](C)NC(=O)[C@H](CC(=O)O)NC(=O)[C@H](CC(=O)O)NC1=O)NC(=O)[C@H](CC(C)(C)C)NC(=O)[C@H](CC(=O)O)NC2=O (some centres unmarked) [I-1252]
Result: 546

====

# assay.target: full-length beta-Catenin (Uniprot ID P35222) (Homo sapiens, UniProt P35222)
# Construct: 10 nM full-length beta-Catenin (Uniprot ID P35222)
# Sequence (P35222 whole entry): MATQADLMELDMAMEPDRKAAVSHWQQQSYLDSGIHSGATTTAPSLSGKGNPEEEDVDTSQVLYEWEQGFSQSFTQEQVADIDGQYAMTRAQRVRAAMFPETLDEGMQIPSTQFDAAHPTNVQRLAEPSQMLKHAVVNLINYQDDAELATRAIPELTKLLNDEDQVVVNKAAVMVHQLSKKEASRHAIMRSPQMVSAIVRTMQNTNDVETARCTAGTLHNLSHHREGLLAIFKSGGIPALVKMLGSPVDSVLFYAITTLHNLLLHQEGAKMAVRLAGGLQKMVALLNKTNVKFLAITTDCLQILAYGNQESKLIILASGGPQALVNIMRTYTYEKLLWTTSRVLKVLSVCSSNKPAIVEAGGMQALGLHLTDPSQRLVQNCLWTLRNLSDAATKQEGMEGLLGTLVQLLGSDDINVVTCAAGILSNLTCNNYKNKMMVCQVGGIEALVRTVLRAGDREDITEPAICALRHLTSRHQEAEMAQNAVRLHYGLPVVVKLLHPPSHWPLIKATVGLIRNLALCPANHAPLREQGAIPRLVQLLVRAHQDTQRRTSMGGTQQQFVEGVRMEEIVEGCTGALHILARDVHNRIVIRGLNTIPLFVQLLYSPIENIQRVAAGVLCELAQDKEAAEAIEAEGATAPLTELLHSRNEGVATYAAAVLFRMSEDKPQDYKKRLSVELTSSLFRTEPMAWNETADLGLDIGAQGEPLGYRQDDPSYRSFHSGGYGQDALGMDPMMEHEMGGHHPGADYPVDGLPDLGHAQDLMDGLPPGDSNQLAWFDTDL
# assay.comment: Fluorescence polarization IC50 (beta-catenin / 5FAM-TCF4 10-53 competition)
# Type: binding
# condition.notes: read-out: beta-Catenin FP IC50
pIC50: −log10 of the molar value.
Is pIC50 at least 8? Then rule met. If not, rule not met.

Query: Please indicate if the recorded pIC50 for CC(=O)N1CCC[C@]12CC=CCCCC1(CCCC=CCCCOC(=O)N3CC[C@@](C(=O)N[C@@H](Cc4ccsc4)C(=O)N[C@@H](Cc4csc5ccccc45)C(=O)N[C@@H](Cc4c[nH]cn4)C(N)=O)(C3)NC(=O)[C@H](CCCNC(N)=O)NC(=O)[C@H](Cc3ccccc3)NC(=O)[C@H](C)NC(=O)[C@H](C)NC(=O)[C@H](CC(=O)O)NC(=O)[C@H](CC(=O)O)NC1=O)NC(=O)[C@H](CC(C)(C)C)NC(=O)[C@H](CC(=O)O)NC2=O (stereo partly drawn) meets or exceeds 8.
Result: rule met

Query: Again, but for CC(=O)N1CCC[C@]12CC=CCCCC1(CCCC=CCCCCCC[C@@](C)(C(=O)N[C@@H](Cc3ccccc3)C(=O)N[C@@H](Cc3csc4ccccc34)C(=O)N[C@H](CC(N)=O)C(N)=O)NC(=O)[C@H](CC(N)=O)NC(=O)[C@H](Cc3ccccc3)NC(=O)[C@H](C)NC(=O)[C@H](C)NC(=O)[C@H](CCC(=O)O)NC(=O)[C@H](CC(=O)O)NC1=O)NC(=O)[C@H](CC(C)C)NC(=O)[C@H](CC(=O)O)NC2=O (stereo partly drawn) [I-757]
Result: rule not met

Query: Again, but for CC(=O)N1CCC[C@]12CC=CCCCC1(CCCC=CCCCCCC[C@@](C)(C(=O)N[C@@H](Cc3cccc(Cl)c3)C(=O)N[C@@H](Cc3csc4ccccc34)C(=O)N[C@@H](CCC(N)=O)C(N)=O)NC(=O)[C@H](CC(N)=O)NC(=O)[C@H](Cc3ccccc3)NC(=O)[C@H](C)NC(=O)[C@H](C)NC(=O)[C@H](CN(CC(=O)O)CC(F)(F)F)NC(=O)[C@H](CC(=O)O)NC1=O)NC(=O)[C@H](CC(C)(C)C)NC(=O)[C@H](CC(=O)O)NC2=O (stereo partly drawn)
Result: rule not met

Query: Again, but for CC(=O)N1CCC[C@]12CC=CCCCC1(CCCC=CCCCOC(=O)N3CC[C@@](C(=O)N[C@@H](Cc4ccsc4)C(=O)N[C@@H](Cc4csc5ccccc45)C(=O)N[C@@H](CCC(N)=O)C(=O)O)(C3)NC(=O)[C@H](CC(N)=O)NC(=O)[C@H](Cc3ccccc3)NC(=O)[C@H](C)NC(=O)[C@H](C)NC(=O)[C@H](CN(CC(=O)O)CC(F)(F)F)NC(=O)[C@H](CC(=O)O)NC1=O)NC(=O)[C@H](CC(C)(C)C)NC(=O)[C@H](CC(=O)O)NC2=O (stereo partly drawn)
Result: rule met

Query: Again, but for CC(=O)N1CCC[C@]12CC=CCCCC1(CCCC=CCCCOC(=O)N3CC[C@@](C(=O)N[C@@H](Cc4ccccc4Cl)C(=O)N[C@@H](Cc4csc5ccccc45)C(=O)N[C@@H](CCC(N)=O)C(N)=O)(C3)NC(=O)[C@H](CC(C)C)NC(=O)[C@H](Cc3ccccc3)NC(=O)[C@H](C)NC(=O)[C@H](C)NC(=O)[C@H](CCC(=O)O)NC(=O)[C@H](CC(=O)O)NC1=O)NC(=O)[C@H](CC1CCCCC1)NC(=O)[C@H](CC(=O)O)NC2=O (stereo partly drawn) [I-1078]
Result: rule not met

Query: Again, but for CC(=O)N1CCC[C@]12CC=CCCCC1(CCCC=CCCCOC(=O)N3CC[C@@](C(=O)N[C@@H](Cc4ccsc4)C(=O)N[C@@H](Cc4c[nH]c5ccc(Cl)cc45)C(=O)N[C@@H](Cc4c[nH]cn4)C(N)=O)(C3)NC(=O)[C@H](CC(N)=O)NC(=O)[C@H](Cc3ccccc3)NC(=O)[C@H](C)NC(=O)[C@H](C)NC(=O)[C@H](CC(=O)O)NC(=O)[C@H](CC(=O)O)NC1=O)NC(=O)[C@H](CC(C)(C)C)NC(=O)[C@H](CC(=O)O)NC2=O (stereo partly drawn)
Result: rule not met

Query: Again, but for CC(=O)N1CCC[C@]12CC=CCCCC1(CCCC=CCCCOC(=O)N3CC[C@@](C(=O)N[C@@H](Cc4ccsc4)C(=O)N[C@@H](Cc4c[nH]c5ccc(F)cc45)C(=O)N[C@@H](Cc4c[nH]cn4)C(N)=O)(C3)NC(=O)[C@H](CC(N)=O)NC(=O)[C@H](Cc3ccccc3)NC(=O)[C@H](C)NC(=O)[C@H](C)NC(=O)[C@H](CC(=O)O)NC(=O)[C@H](CC(=O)O)NC1=O)NC(=O)[C@H](CC(C)(C)C)NC(=O)[C@H](CC(=O)O)NC2=O (stereo partly drawn)
Result: rule not met

Query: Again, but for CC(=O)N1CCC[C@]12CC=CCCCC1(CCCC=CCCCOC(=O)N3CC[C@@](C(=O)N[C@@H](Cc4ccsc4)C(=O)N[C@@H](Cc4csc5ccccc45)C(=O)N[C@@H](CCC(N)=O)C(N)=O)(C3)NC(=O)[C@H](CC(N)=O)NC(=O)[C@H](Cc3ccccc3)NC(=O)[C@H](CCCCNC(=O)C34CC5CC(CC(C5)C3)C4)NC(=O)[C@H](C)NC(=O)[C@H](CC(=O)O)NC(=O)[C@H](CC(=O)O)NC1=O)NC(=O)[C@H](CC(C)(C)C)NC(=O)[C@H](CC(=O)O)NC2=O (stereo partly drawn)
Result: rule not met
